target: T1, hPD-1 Avi-Tag Biotin (AcroBiosystems PD1-H82E4) (human, UniProt Q15116 25-167, biotin on Avi-Tag); assay: SPR, Ab captured, PD-1 analyte
T1 construct: bought; also called human PD-1
T1 sequence (Q15116 25-167 limits assumed): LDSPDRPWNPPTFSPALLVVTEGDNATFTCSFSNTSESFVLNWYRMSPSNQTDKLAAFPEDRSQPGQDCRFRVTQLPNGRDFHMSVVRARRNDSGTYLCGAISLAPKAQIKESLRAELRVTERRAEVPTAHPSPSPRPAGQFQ
testReadout: pKd
One number for each entry, as −log10 of the molar value.

Req: Give its pKd value. Item: z0-XVT458 (antibody, human IgG1, kappa, V domains shown, hIgG1; also called GH + uVL) VH: QVQLVQSGAEVKKPGASVKVSCKASGYTFTNFYIHWVRQAPGQGLEWMGSIYPNYGDTAYNQKFKDRVTMTTDTSTSTAYMELRSLRSDDTAVYYCARGYSYAMDYWGQGTTVTVSS VL: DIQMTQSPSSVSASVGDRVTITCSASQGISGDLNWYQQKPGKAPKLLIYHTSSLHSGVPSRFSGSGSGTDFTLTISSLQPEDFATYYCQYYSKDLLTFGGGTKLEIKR
Resp: 7.79
